Data origin, for the record: patent US20260256733A1

As shown below, each of these molecules has a reported Activity Level value.
# ASSAY SYSTEM: mGlu2 (Homo sapiens, UniProt Q14416)
# Sequence (Q14416 19-872): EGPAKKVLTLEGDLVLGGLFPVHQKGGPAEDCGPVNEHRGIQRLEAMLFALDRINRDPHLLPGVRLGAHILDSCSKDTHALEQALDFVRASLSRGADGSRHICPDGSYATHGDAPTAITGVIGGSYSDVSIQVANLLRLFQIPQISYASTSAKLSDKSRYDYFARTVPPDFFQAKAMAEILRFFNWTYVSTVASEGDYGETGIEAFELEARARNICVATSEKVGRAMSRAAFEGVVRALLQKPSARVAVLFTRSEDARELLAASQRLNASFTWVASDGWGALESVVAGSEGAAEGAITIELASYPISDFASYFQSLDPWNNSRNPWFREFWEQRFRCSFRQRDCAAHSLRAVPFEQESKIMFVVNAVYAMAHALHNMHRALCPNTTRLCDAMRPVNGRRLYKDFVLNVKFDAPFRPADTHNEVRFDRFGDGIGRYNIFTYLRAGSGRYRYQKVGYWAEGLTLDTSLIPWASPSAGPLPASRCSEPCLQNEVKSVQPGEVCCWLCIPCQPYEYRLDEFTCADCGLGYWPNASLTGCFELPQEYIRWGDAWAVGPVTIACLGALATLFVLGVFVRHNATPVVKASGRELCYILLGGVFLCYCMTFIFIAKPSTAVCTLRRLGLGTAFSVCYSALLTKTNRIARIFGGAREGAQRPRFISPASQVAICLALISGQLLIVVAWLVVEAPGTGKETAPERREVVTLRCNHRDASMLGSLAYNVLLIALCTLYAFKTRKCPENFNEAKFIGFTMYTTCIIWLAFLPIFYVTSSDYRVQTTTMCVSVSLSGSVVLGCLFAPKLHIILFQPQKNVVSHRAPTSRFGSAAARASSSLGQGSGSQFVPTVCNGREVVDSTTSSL
# TEST PROTOCOL: Standardized bioassay protocol, mGluR2 antagonist/NAM assay
# Format: cell-based
# PROTOCOL CONDITIONS: 20 μM; mGlu2 activity, control at 100%; greater than control indicates NAM or antagonist

Below: 5 molecules and their reported Activity Level.
> print(dat)
                                   molecule   quantity.name        reported
1          O=C1c2cccc(O)c2C(=O)c2c(O)cccc21  Activity Level  20 μM/142.558%
2  COc1cc(O[C@@H]2O[C@H](CO)[C@@H](O)[C@H](O)[C@H]2O)c2c(O)c(C(C)=O)c(C)cc2c1  Activity Level  20 μM/107.501%
3                Cn1cnc2c1c(=O)[nH]c(=O)n2C  Activity Level  20 μM/153.003%
4              Cn1c(=O)[nH]c(=O)c2[nH]cnc21  Activity Level  20 μM/152.609%
5  CC(=O)Oc1cccc2c1C(=O)c1c(OC(C)=O)cc(C(=O)O)cc1C2=O  Activity Level  20 μM/195.543%

Value of measured Activity Level for the entry O=C1c2cccc(O)c2C(=O)C2C(O)=CC(CO)=CC12 (stereo not shown) : 20 μM/191.200%

Value of measured Activity Level for the entry O=C(O)c1cc(O)c2c(c1)C(=O)c1cccc(O)c1C2=O : 20 μM/749.225%
